Origin of measurements: ChEMBL document CHEMBL1146830

Molecular target: Integrin alpha-5/beta-1 (Homo sapiens, UniProt P05556+P08648)
Sequence (P05556 21-798 limits assumed): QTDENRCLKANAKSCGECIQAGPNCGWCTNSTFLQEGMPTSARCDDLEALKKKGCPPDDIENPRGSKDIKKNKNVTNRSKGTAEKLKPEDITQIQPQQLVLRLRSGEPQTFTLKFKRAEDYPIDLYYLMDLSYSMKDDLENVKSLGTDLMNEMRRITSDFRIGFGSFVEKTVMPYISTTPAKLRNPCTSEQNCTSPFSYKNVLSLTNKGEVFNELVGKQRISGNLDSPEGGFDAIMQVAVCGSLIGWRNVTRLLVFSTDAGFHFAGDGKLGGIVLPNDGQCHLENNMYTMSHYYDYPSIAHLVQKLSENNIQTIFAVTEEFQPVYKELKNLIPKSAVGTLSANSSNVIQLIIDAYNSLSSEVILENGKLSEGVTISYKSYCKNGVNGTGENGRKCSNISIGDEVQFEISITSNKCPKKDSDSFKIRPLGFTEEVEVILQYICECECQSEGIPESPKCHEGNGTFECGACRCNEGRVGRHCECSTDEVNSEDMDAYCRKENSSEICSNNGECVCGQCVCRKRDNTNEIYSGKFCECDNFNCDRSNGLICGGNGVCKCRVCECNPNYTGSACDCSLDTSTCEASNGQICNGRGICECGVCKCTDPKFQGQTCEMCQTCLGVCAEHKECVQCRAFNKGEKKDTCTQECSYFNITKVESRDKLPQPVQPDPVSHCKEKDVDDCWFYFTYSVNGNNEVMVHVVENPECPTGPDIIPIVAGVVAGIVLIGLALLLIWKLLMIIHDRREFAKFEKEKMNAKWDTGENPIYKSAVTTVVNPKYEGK
Sequence (P08648 42-894 limits assumed): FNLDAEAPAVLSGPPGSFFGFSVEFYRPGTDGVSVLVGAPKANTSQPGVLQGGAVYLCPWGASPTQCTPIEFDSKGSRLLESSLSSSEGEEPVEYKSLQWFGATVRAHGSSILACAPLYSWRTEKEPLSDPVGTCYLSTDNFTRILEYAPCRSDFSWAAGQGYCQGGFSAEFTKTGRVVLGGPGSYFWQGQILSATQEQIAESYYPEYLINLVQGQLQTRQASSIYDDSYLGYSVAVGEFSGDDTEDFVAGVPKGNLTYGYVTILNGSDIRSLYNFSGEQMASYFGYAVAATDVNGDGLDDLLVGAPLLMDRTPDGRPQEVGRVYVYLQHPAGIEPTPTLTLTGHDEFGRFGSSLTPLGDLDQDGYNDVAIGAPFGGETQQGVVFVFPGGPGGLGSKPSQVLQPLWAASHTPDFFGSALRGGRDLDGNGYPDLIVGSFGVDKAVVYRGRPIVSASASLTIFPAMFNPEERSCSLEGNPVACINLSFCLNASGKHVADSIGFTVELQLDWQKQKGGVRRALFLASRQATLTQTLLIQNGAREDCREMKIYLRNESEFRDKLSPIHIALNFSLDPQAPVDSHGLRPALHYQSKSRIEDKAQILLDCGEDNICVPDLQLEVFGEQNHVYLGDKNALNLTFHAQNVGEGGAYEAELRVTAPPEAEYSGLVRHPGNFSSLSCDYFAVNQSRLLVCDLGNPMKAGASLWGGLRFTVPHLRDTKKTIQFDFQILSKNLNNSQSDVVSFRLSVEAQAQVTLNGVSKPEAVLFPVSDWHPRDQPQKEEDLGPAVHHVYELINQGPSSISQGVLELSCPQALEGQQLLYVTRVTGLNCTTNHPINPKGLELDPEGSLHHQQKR
Sequence (P08648 895-1049 limits assumed): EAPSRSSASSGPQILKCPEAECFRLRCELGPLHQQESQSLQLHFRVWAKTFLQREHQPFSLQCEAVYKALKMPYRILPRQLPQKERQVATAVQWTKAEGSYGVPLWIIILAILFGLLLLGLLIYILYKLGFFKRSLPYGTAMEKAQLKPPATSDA
Test: Alpha-5 beta-1 antagonism using an ELISA assay
pIC50: −log10 of the molar value.
assayEndpoint: pIC50

* Cc1cc(C)c(S(=O)(=O)N[C@@H](CNC(=O)C2=NO[C@]3(CN[C@H](CNc4ncc[nH]4)C3)C2)C(=O)O)c(C)c1 | 6.64
* Cc1cc(C)c(S(=O)(=O)N[C@@H](CNC(=O)C2=NO[C@]3(C2)C[C@@H](CNc2ccccn2)N(C(=O)OCc2ccccc2)C3)C(=O)O)c(C)c1 | 9.74
* Cc1cc(C)c(S(=O)(=O)N[C@@H](CNC(=O)C2=NO[C@]3(C2)C[C@@H](CNC2=NCCN2)N(C(=O)OCc2ccccc2)C3)C(=O)O)c(C)c1 | 7.89
* CCCCOC(=O)N1C[C@@]2(CC(C(=O)NC[C@H](NS(=O)(=O)c3c(C)cc(C)cc3C)C(=O)O)=NO2)C[C@H]1CNc1nc2ccccc2[nH]1 | 9.41
* CCCCOC(=O)N1C[C@@]2(CC(C(=O)NC[C@H](NS(=O)(=O)c3c(C)cc(C)cc3C)C(=O)O)=NO2)C[C@H]1CNc1ncc[nH]1 | 7.85
* COC(=O)N1C[C@@]2(CC(C(=O)NC[C@H](NS(=O)(=O)c3c(C)cc(C)cc3C)C(=O)O)=NO2)C[C@H]1CNc1nc2ccccc2[nH]1 | 8.85
* Cc1cc(C)c(S(=O)(=O)N[C@@H](CNC(=O)C2=NO[C@@]3(C2)C[C@@H](CNC2=NCCN2)N(C(=O)OCc2ccccc2)C3)C(=O)O)c(C)c1 | 5.92
* Cc1cc(C)c(S(=O)(=O)N[C@@H](CNC(=O)C2=NO[C@]3(C2)C[C@@H](CNc2ncc[nH]2)N(C(=O)OCc2ccccc2)C3)C(=O)O)c(C)c1 | 7.74
* Cc1cc(C)c(S(=O)(=O)N[C@@H](CNC(=O)C2=NO[C@]3(C2)C[C@@H](CNc2ncc[nH]2)N(C(=O)OCc2cccnc2)C3)C(=O)O)c(C)c1 | 7.41
* COC(=O)N1C[C@@]2(CC(C(=O)NC[C@H](NS(=O)(=O)c3c(C)cc(C)cc3C)C(=O)O)=NO2)C[C@H]1CNc1ncc[nH]1 | 7.68
